These measurements were taken from patent USRE48335E1.

Positions of bridges follow the written chain, without caps; N, C: chain ends. Non-standard residues stand in square brackets, D forms with d. Residues, ends and D or L forms follow the SMILES beside them. *: point of attachment. Heptanoyl = CCCCCCC(=O)*; Octanoyl = CCCCCCCC(=O)*; Dab = NCC[C@H](N)C(=O)O; Dap = NC[C@H](N)C(=O)O
Minimum inhibitory concentration, Ec FADDI-EC003, Enterobacter cloacae, per-entry values.
readoutType: Minimum inhibitory concentration, Ec FADDI-EC003

molecule="CCCCCCC(=O)N[C@@H](CCN)C(=O)N[C@H](C(=O)N[C@@H](CN)C(=O)N[C@H]1CCNC(=O)[C@H]([C@@H](C)O)NC(=O)[C@H](CCN)NC(=O)[C@H](CCN)NC(=O)[C@H]([C@@H](C)O)NC(=O)[C@@H](CC(C)C)NC(=O)[C@H](CCN)NC1=O)[C@@H](C)O [Compound 44] (Heptanoyl-[Dab]T[Dap][Dab][Dab][dL]T[Dab][Dab]T; lactam 4-C)" experimentaltarget="Enterobacter cloacae" assayvalue="<0.125 µg/mL"
molecule="CCCCCCCC(=O)N[C@@H](CCN)C(=O)N[C@H](C(=O)N[C@@H](CN)C(=O)N[C@H]1CCNC(=O)[C@H]([C@@H](C)O)NC(=O)[C@H](CCN)NC(=O)[C@H](CCN)NC(=O)[C@H](C(C)C)NC(=O)[C@@H](CC(C)C)NC(=O)[C@H](CCN)NC1=O)[C@@H](C)O [Compound 36] (Octanoyl-[Dab]T[Dap][Dab][Dab][dL]V[Dab][Dab]T; lactam 4-C)" experimentaltarget="Enterobacter cloacae" assayvalue="<0.125 µg/mL"
molecule="CCCCCCCC(=O)N[C@@H](CCN)C(=O)N[C@H](C(=O)N[C@H](CO)C(=O)N[C@H]1CCNC(=O)[C@H]([C@@H](C)O)NC(=O)[C@H](CCN)NC(=O)[C@H](CCN)NC(=O)[C@H](C(C)C)NC(=O)[C@@H](CC(C)C)NC(=O)[C@H](CCN)NC1=O)[C@@H](C)O [Compound 5] (Octanoyl-[Dab]T[dS][Dab][Dab][dL]V[Dab][Dab]T; lactam 4-C)" experimentaltarget="Enterobacter cloacae" assayvalue="<0.125 µg/mL"

* * *

Tested on: Acinetobacter baumannii
experimentalSetup: Acinetobacter baumannii ATCC 19606; broth microdilution in CAMHB
Positions of bridges follow the written chain, without caps; N, C: chain ends. Non-standard residues stand in square brackets, D forms with d. Residues, ends and D or L forms follow the SMILES beside them. *: point of attachment. Benzoyl(4-Ph) = O=C(c1ccc(-c2ccccc2)cc1)*; X23 = O=C(c1c(Cl)cc(Cl)cc1Cl)*; X4 = O=C(c1ccc(Cl)c(Cl)c1)*; Dab = NCC[C@H](N)C(=O)O; Abu = CC[C@H](N)C(=O)O; Dap = NC[C@H](N)C(=O)O
Form field: Minimum inhibitory concentration, Ab ATCC 19606 (one value per entry).
readoutType: Minimum inhibitory concentration, Ab ATCC 19606

molecule="CC[C@@H]1NC(=O)[C@@H](CC(C)C)NC(=O)[C@H](CCN)NC(=O)[C@@H](NC(=O)[C@H](CN)NC(=O)[C@@H](NC(=O)[C@H](CCN)NC(=O)c2ccc(Cl)c(Cl)c2)[C@@H](C)O)CCNC(=O)[C@H]([C@@H](C)O)NC(=O)[C@H](CCN)NC(=O)[C@H](CCN)NC1=O [Compound 71] (X4-[Dab]T[Dap][Dab][Dab][dL][Abu][Dab][Dab]T; lactam 4-C)" assayvalue="0.5 µg/mL"
molecule="CC[C@@H]1NC(=O)[C@@H](CC(C)C)NC(=O)[C@H](CCN)NC(=O)[C@@H](NC(=O)[C@H](CN)NC(=O)[C@@H](NC(=O)[C@H](CCN)NC(=O)c2c(Cl)cc(Cl)cc2Cl)[C@@H](C)O)CCNC(=O)[C@H]([C@@H](C)O)NC(=O)[C@H](CCN)NC(=O)[C@H](CCN)NC1=O [Compound 95] (X23-[Dab]T[Dap][Dab][Dab][dL][Abu][Dab][Dab]T; lactam 4-C)" assayvalue="0.25 µg/mL"
molecule="CC(C)C[C@H]1NC(=O)[C@H](CCN)NC(=O)[C@@H](NC(=O)[C@H](CCN)NC(=O)[C@@H](NC(=O)[C@H](CCN)NC(=O)c2ccc(-c3ccccc3)cc2)[C@@H](C)O)CCNC(=O)[C@H]([C@@H](C)O)NC(=O)[C@H](CCN)NC(=O)[C@H](CCN)NC(=O)[C@H]([C@@H](C)O)NC1=O [Compound 29] ({Benzoyl(4-Ph)}-[Dab]T[Dab][Dab][Dab][dL]T[Dab][Dab]T; lactam 4-C)" assayvalue="8 µg/mL"

* * *

Form field: Minimum inhibitory concentration, Ec FADDI-EC003 (one value per entry).
System: Enterobacter cloacae
Positions of bridges follow the written chain, without caps; N, C: chain ends. Non-standard residues stand in square brackets, D forms with d. Residues, ends and D or L forms follow the SMILES beside them. *: point of attachment. Benzoyl(3-CF3) = O=C(c1cccc(C(F)(F)F)c1)*; Heptanoyl(6-Me) = CC(C)CCCCC(=O)*; dNle = CCCC[C@@H](N)C(=O)O; Octanoyl = CCCCCCCC(=O)*; Dab = NCC[C@H](N)C(=O)O; Abu = CC[C@H](N)C(=O)O; Dap = NC[C@H](N)C(=O)O
readoutType: Minimum inhibitory concentration, Ec FADDI-EC003 (µg/mL)

compound="CC[C@@H]1NC(=O)[C@@H](CC(C)C)NC(=O)[C@H](CCN)NC(=O)[C@@H](NC(=O)[C@H](CN)NC(=O)[C@@H](NC(=O)[C@H](CCN)NC(=O)CCCCC(C)C)[C@@H](C)O)CCNC(=O)[C@H]([C@@H](C)O)NC(=O)[C@H](CCN)NC(=O)[C@H](CCN)NC1=O [Compound 66] ({Heptanoyl(6-Me)}-[Dab]T[Dap][Dab][Dab][dL][Abu][Dab][Dab]T; lactam 4-C)" unitabbrev=µg/mL readoutrelation=< assayvalue=0.125
compound="CCCC[C@H]1NC(=O)[C@H](CCN)NC(=O)[C@@H](NC(=O)[C@H](CN)NC(=O)[C@@H](NC(=O)[C@H](CCN)NC(=O)c2cccc(C(F)(F)F)c2)[C@@H](C)O)CCNC(=O)[C@H]([C@@H](C)O)NC(=O)[C@H](CCN)NC(=O)[C@H](CCN)NC(=O)[C@H]([C@@H](C)O)NC1=O [Compound 123] ({Benzoyl(3-CF3)}-[Dab]T[Dap][Dab][Dab][dNle]T[Dab][Dab]T; lactam 4-C)" unitabbrev=µg/mL readoutrelation== assayvalue=0.5
compound="CCCCCCCC(=O)N[C@@H](CCN)C(=O)N[C@H](C(=O)N[C@@H](CN)C(=O)N[C@H]1CCNC(=O)[C@H]([C@@H](C)O)NC(=O)[C@H](CCN)NC(=O)[C@H](CCN)NC(=O)[C@H](C)NC(=O)[C@@H](Cc2ccccc2)NC(=O)[C@H](CCN)NC1=O)[C@@H](C)O [Compound 128] (Octanoyl-[Dab]T[Dap][Dab][Dab][dF]A[Dab][Dab]T; lactam 4-C)" unitabbrev=µg/mL readoutrelation== assayvalue=0.25

* * *

Test system: Enterobacter cloacae
experimentalSetup: Enterobacter cloacae FADDI-EC003; broth microdilution in CAMHB; TFA salt
Method: MICs of the lipopeptides (trifluoroacetic acid salt, TFA) were determined by broth microdilution in cation-adjusted Mueller-Hinton broth (CAMHB) (Oxoid Australia, Thebarton, SA, Australia) according to Clinical and Laboratory Standards Institute standards (Clinical and Laboratory Standards Institute. Performance standards for antimicrobial susceptibility testing; eighteenth informational supplement M100-S18. Wayne, Pa., 2008). Polymyxin B (sulphate) was employed as control. […]
Positions of bridges follow the written chain, without caps; N, C: chain ends. Non-standard residues stand in square brackets, D forms with d. Residues, ends and D or L forms follow the SMILES beside them. *: point of attachment. Benzoyl(4-(4-Cl-Ph)) = O=C(c1ccc(-c2ccc(Cl)cc2)cc1)*; Benzoyl(3-Ph) = O=C(c1cccc(-c2ccccc2)c1)*; Hydrocinnamoyl = O=C(CCc1ccccc1)*; X41 = O=S(=O)(c1ccc(Cl)cc1Cl)*; Dab = NCC[C@H](N)C(=O)O; Abu = CC[C@H](N)C(=O)O; Dap = NC[C@H](N)C(=O)O
readoutType: Minimum inhibitory concentration (MIC), Ec FADDI-EC003 (µg/mL)

compound="CC[C@@H]1NC(=O)[C@@H](CC(C)C)NC(=O)[C@H](CCN)NC(=O)[C@@H](NC(=O)[C@H](CN)NC(=O)[C@@H](NC(=O)[C@H](CCN)NC(=O)c2cccc(-c3ccccc3)c2)[C@@H](C)O)CCNC(=O)[C@H]([C@@H](C)O)NC(=O)[C@H](CCN)NC(=O)[C@H](CCN)NC1=O [Compound 138] ({Benzoyl(3-Ph)}-[Dab]T[Dap][Dab][Dab][dL][Abu][Dab][Dab]T; lactam 4-C)" unitabbrev=µg/mL readoutrelation== assayvalue=1
compound="CC[C@@H]1NC(=O)[C@@H](CC(C)C)NC(=O)[C@H](CCN)NC(=O)[C@@H](NC(=O)[C@H](CN)NC(=O)[C@@H](NC(=O)[C@H](CCN)NC(=O)CCc2ccccc2)[C@@H](C)O)CCNC(=O)[C@H]([C@@H](C)O)NC(=O)[C@H](CCN)NC(=O)[C@H](CCN)NC1=O [Compound 145] (Hydrocinnamoyl-[Dab]T[Dap][Dab][Dab][dL][Abu][Dab][Dab]T; lactam 4-C)" unitabbrev=µg/mL readoutrelation=< assayvalue=0.125
compound="CC[C@@H]1NC(=O)[C@@H](CC(C)C)NC(=O)[C@H](CCN)NC(=O)[C@@H](NC(=O)[C@H](CN)NC(=O)[C@@H](NC(=O)[C@H](CCN)NS(=O)(=O)c2ccc(Cl)cc2Cl)[C@@H](C)O)CCNC(=O)[C@H]([C@@H](C)O)NC(=O)[C@H](CCN)NC(=O)[C@H](CCN)NC1=O [Compound 148] (X41-[Dab]T[Dap][Dab][Dab][dL][Abu][Dab][Dab]T; lactam 4-C)" unitabbrev=µg/mL readoutrelation== assayvalue=4
compound="CC(C)C[C@H]1NC(=O)[C@H](CCN)NC(=O)[C@@H](NC(=O)[C@H](CN)NC(=O)[C@@H](NC(=O)[C@H](CCN)NC(=O)c2ccc(-c3ccc(Cl)cc3)cc2)[C@@H](C)O)CCNC(=O)[C@H]([C@@H](C)O)NC(=O)[C@H](CCN)NC(=O)[C@H](CCN)NC(=O)[C@H](C)NC1=O [Compound 144] ({Benzoyl(4-(4-Cl-Ph))}-[Dab]T[Dap][Dab][Dab][dL]A[Dab][Dab]T; lactam 4-C)" unitabbrev=µg/mL readoutrelation== assayvalue=1
